TESTED SYSTEM: recombinant human AMPK α2β2γ1 (Homo sapiens, UniProt O43741+P54619+P54646)
Sequence (P54646 whole entry): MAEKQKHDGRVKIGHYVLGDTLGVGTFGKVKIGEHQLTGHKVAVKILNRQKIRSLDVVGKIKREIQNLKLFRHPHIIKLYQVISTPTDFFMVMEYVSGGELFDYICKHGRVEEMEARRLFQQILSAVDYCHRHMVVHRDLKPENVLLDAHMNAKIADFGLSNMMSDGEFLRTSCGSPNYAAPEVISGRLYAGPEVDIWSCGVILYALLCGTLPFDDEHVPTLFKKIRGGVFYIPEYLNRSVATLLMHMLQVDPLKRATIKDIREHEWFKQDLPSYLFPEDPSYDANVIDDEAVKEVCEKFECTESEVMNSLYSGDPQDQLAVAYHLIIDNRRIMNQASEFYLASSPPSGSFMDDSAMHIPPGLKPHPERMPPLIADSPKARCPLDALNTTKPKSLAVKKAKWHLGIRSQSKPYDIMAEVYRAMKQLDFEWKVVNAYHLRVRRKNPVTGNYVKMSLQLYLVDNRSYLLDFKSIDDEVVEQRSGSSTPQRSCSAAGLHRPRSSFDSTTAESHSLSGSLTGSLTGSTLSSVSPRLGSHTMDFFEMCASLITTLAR
Sequence (O43741 whole entry partner): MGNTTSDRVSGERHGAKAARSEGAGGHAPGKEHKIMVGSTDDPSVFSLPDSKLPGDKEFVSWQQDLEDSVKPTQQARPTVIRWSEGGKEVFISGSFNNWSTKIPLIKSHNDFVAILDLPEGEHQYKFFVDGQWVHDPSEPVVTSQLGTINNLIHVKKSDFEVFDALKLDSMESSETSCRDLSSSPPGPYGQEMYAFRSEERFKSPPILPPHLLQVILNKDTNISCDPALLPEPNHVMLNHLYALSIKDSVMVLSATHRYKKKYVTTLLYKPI
Sequence (P54619 whole entry partner): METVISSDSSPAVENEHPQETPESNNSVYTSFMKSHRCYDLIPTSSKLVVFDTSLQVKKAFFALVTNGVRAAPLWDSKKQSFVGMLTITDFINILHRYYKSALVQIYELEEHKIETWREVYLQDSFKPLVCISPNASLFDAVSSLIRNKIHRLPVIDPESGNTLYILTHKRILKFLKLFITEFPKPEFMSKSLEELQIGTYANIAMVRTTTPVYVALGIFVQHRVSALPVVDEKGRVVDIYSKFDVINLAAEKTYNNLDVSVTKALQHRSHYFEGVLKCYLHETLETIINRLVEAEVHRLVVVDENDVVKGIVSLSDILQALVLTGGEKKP
PROTOCOL TEXT: Scintillation proximity assay (SPA), AMPK activation
EXPERIMENTAL ENDPOINT: EC50 (nM)
Express the result in nM but write the number alone.

Entry "Cc1ccc(OCCSc2ncccn2)c(Br)c1" , recombinant human AMPK α2β2γ1 (Homo sapiens, UniProt O43741+P54619+P54646) data, EC50 value: 130

----------
TESTED SYSTEM: AMPK α1(1–335) (Homo sapiens, UniProt Q13131)
Sequence (Q13131 10-344): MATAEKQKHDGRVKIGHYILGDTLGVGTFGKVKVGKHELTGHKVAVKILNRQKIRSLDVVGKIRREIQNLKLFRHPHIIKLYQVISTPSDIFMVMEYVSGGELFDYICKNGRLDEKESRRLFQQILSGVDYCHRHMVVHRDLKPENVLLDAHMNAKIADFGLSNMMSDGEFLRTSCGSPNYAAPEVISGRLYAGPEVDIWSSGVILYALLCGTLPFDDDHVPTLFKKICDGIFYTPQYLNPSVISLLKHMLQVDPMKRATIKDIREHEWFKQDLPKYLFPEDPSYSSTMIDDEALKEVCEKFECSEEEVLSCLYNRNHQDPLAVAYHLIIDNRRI
PROTOCOL TEXT: SPA, inactive α1 subunit truncation
STATED CONDITIONS: read-out: EC50, activation of α1(1–335)
EXPERIMENTAL ENDPOINT: EC50 (µM)
Express the result in µM but write the number alone.

Entry Cc1ccc(OCCSc2ncccn2)c(Br)c1 [ZLN024] , AMPK α1(1–335) (Homo sapiens, UniProt Q13131) data, EC50 value: 2.23
